target: IRAK4 (Homo sapiens (Human), UniProt Q9NWZ3); assay: IRAK4 MSD degradation in OCI-LY10; type: cell-based; settings: OCI-LY10, 4 hrs, MSD; read-out: IRAK4 MSD degradation in OCI-LY10 at 4 hrs: Average external-Abs DC50
Sequence (Q9NWZ3 whole entry): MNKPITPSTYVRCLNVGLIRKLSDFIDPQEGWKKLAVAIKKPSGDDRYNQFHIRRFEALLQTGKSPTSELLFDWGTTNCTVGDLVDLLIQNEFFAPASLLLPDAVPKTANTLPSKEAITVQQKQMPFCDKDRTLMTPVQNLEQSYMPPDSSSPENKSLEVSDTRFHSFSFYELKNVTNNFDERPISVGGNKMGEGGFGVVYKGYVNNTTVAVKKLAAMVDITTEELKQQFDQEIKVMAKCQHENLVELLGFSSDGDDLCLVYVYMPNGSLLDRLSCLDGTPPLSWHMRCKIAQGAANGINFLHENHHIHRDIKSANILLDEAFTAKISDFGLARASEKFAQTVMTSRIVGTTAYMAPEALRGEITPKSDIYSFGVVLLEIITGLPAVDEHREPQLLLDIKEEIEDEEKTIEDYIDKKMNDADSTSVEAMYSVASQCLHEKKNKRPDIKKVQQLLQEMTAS
PROPERTY LABEL: DC50

Examples with answers:
CC[C@@H]1[C@H](F)C(=O)N[C@@H]1COc1ncc(C#C[C@H]2CC[C@@H](CN(C)CCCOCCCc3ccc4c(c3)n(C)c(=O)n4C3CCC(=O)NC3=O)CC2)c2cc(C(N)=O)c(OC)cc12 (some centres unmarked) :: 100 to 1000 nM
Cn1c(=O)n(C2CCC(=O)NC2=O)c2cccc(CCCOC3CCN(C[C@H]4CC[C@H](n5cc(NC(=O)c6cnn7ccc(NCC8CC8)nc67)c(C(F)F)n5)CC4)CC3)c21 (some centres unmarked) :: 10 to 100 nM

Record request: DC50 value, item CC[C@@H]1[C@H](F)C(=O)N[C@@H]1COc1ncc(C#CC2CCN(CCOCCNc3cccc4c3C(=O)N(C3CCC(=O)NC3=O)C4=O)CC2)c2cc(C(N)=O)c(OC)cc12 (some centres unmarked)
> 1000 nM

Record request: DC50 value, item CN(C[C@@H]1CN(CCCc2ccc3c(c2)n(C)c(=O)n3C2CCC(=O)NC2=O)CCO1)C[C@H]1CC[C@H](n2cc(NC(=O)c3coc(-c4ccnc(NCC5CC5)c4)n3)c(C(F)F)n2)CC1 (some centres unmarked)
10 to 100 nM

Record request: DC50 value, item CN(CCCOCCCNc1cccc2c1C(=O)N(C1CCC(=O)NC1=O)C2=O)C[C@H]1CC[C@H](n2cc3cc(NC(=O)c4cccc(C(F)(F)F)n4)c(C(C)(C)O)cc3n2)CC1 (some centres unmarked)
10 to 100 nM
